Values compiled from PubChem BioAssay (NCATS).

Hi there, I'd appreciate the recorded max response for every entry that follows.
# Tested on: KB-3-1
# assay: Cytotoxic Profiling of Annotated Libraries Using Quantitative High-Throughput Screening (AID 1296008); note: % is set by controls: 0 for no effect and ±100 for the full control effect; nearly all actives have a fitted effect of over 60% in size
# condition-summary: Five cell lines viability, CellTiter-Glo ATP luminescence, 48-72 h, active compounds read low
Records with an inconclusive call do not appear. Active and inactive are the calls of the source. Calls come from the whole dose curve; as a rule, active = well fitted inhibition curve with a large enough effect; inconclusive = small, poorly fitted or top-dose-only effect; inactive = flat fitted curve, though single readings scatter.

May I ask what max response has been recorded for OC(CCN1CCCC1)(c1ccccc1)C1CCCCC1 (configuration not stated) ?
-9.13% (inactive)

May I ask what max response has been recorded for CC(=O)OCC(=O)[C@@]1(O)CC[C@H]2[C@@H]3CCC4=CC(=O)C=C[C@]4(C)[C@@]3(F)[C@@H](O)C[C@@]21C ?
29.8% (inactive)

May I ask what max response has been recorded for O=C(O)Cc1ccc(CCNS(=O)(=O)c2ccc(Cl)cc2)cc1 ?
0.272% (inactive)

May I ask what max response has been recorded for C[C@@H](c1ncncc1F)C(O)(Cn1cncn1)c1ccc(F)cc1F (some centres not stated) ?
-2.08% (inactive)

May I ask what max response has been recorded for C1CCN2C[C@@H]3C[C@@H](CN4CCCC[C@@H]34)[C@H]2C1 ?
4.47% (inactive)

May I ask what max response has been recorded for O=C(NCC(O)CO)c1c(I)c(C(=O)NCC(O)CO)c(I)c(N(CCO)C(=O)CO)c1I (configuration not stated) ?
27.3% (inactive)

May I ask what max response has been recorded for CCCCCCCCCCCCCCCCC(C(=O)O)C(O)(CC(=O)O)C(=O)O (configuration not stated) ?
6.88% (inactive)

May I ask what max response has been recorded for NS(=O)(=O)c1cc(-c2nn[nH]n2)c(NCc2cccs2)cc1Cl ?
-9.88% (inactive)

May I ask what max response has been recorded for Cn1c(=O)c2c(ncn2CCO)n(C)c1=O ?
-5.28% (inactive)

May I ask what max response has been recorded for CC(C(=O)O)c1ccc2c(c1)Cc1cccnc1O2 (configuration not stated) ?
-7.45% (inactive)

May I ask what max response has been recorded for O=C(O)C(S)C(S)C(=O)O (configuration not stated) ?
-23% (inactive)

May I ask what max response has been recorded for Nc1ccc(S(=O)(=O)c2ccc(N)cc2)cc1 ?
-3.79% (inactive)
